system: mPanx1 (Mus musculus)
Construct: gene Panx1
Sequence (Q9JIP4 whole entry): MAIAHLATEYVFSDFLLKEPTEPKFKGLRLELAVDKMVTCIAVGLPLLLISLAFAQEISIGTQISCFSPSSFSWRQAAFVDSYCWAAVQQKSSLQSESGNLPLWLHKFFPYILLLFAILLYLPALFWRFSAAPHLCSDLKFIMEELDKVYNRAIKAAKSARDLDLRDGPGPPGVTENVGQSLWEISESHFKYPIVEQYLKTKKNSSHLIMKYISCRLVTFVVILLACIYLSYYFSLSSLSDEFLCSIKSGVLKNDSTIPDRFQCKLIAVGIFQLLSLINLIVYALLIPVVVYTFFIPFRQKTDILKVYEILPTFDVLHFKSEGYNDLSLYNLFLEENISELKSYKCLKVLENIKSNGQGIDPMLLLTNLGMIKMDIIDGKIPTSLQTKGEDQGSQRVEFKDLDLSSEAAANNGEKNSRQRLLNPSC
experiment_notes: whole-cell patch clamp, CHO cells transfected with mPanx1, single dose […]
Format: cell-based
cond: read-out: I% ^a
Label rule, in plain words: inhibition at 50 µM of 60% and up is y, under 60% is n.

> print(dat)
                                   compound  assigned.class
1  CCN(CC)S(=O)(=O)c1ccc2c(c1)c(=O)c(C(=O)O)cn2Cc1ccc(C(=O)O)cc1 [12b]               y
2  NS(=O)(=O)c1ccc2c(c1)c(=O)c(C(=O)O)cn2Cc1ccc(C(=O)O)cc1 [5b]               n
3  CCN(CC)S(=O)(=O)c1ccc2c(c1)c(=O)c(C(=O)O)cn2Cc1ccccc1 [12a]               n
4  CCCN(CCC)S(=O)(=O)c1ccc2c(c1)c(=O)c(C(=O)O)cn2CCc1ccccc1 [12g]               n
5  CCN(CC)S(=O)(=O)c1ccc2c(c1)c(=O)c(C(=O)O)cn2Cc1ccc(S(N)(=O)=O)cc1 [12c]               n
